# test_target: β-secretase (BACE) (Homo sapiens)
# Construct: purchased Panvera
# experimental_details: BACE FS1% Inhibition Assay (Example 160)
# Type: biochemical
# test_settings: 0.3 μM test compound; read-out: % Inhibition (FS)
measured_attribute: inhibition at 0.3 µM (%)

- compound: "NC1=Nc2ccc(Oc3ccccc3)cc2CN1C(CNC(=O)C12CC3CC(CC(C3)C1)C2)C1CCCCC1 (stereo not drawn)"
  measured_attribute: "inhibition at 0.3 µM"
  unit_text: "%"
  readout_relation: "="
  number: 74
- compound: "CCCC(CNC(=O)C12CC3CC(CC(C3)C1)C2)N1Cc2cc(Oc3ccccc3)ccc2N=C1N (stereo not drawn)"
  measured_attribute: "inhibition at 0.3 µM"
  unit_text: "%"
  readout_relation: "="
  number: 78
- compound: "CCC[C@H](CNC(=O)CCC(C)C)N1Cc2cc(Oc3ccccc3)ccc2N=C1N"
  measured_attribute: "inhibition at 0.3 µM"
  unit_text: "%"
  readout_relation: "="
  number: 101
- compound: "CN(C(=O)CC(C1CCCCC1)N1Cc2cc(Oc3ccccc3)ccc2N=C1N)C1CCCCC1 (stereo not drawn)"
  measured_attribute: "inhibition at 0.3 µM"
  unit_text: "%"
  readout_relation: "<"
  number: 30
- compound: "CC(C)(C)OC(=O)NCC(C1CCCCC1)N1Cc2cc(Oc3ccccc3)ccc2N=C1N (stereo not drawn)"
  measured_attribute: "inhibition at 0.3 µM"
  unit_text: "%"
  readout_relation: "="
  number: 67
- compound: "CCCCCC(CCC(=O)NC1CCCCCC1)N1Cc2cc(Oc3ccccc3)ccc2N=C1N (stereo not drawn)"
  measured_attribute: "inhibition at 0.3 µM"
  unit_text: "%"
  readout_relation: "<"
  number: 30

====

# test_target: β-secretase (BACE) (Homo sapiens, UniProt P56817)
# Construct: purchased Panvera
# Sequence (P56817 46-501): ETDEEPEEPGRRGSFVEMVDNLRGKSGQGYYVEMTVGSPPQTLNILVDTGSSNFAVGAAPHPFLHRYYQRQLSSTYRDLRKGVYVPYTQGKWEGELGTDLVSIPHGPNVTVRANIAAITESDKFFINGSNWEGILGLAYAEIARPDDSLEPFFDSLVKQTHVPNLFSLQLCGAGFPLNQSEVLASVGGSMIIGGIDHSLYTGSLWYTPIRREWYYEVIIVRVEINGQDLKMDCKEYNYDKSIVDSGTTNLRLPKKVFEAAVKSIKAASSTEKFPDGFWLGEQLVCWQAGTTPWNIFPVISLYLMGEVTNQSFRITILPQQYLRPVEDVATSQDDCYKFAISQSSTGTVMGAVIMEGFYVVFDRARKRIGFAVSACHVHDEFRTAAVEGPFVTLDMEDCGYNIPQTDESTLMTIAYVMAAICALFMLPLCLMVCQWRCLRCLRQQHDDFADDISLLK
# experimental_details: BACE FS1% Inhibition Assay (Example 160)
# Type: biochemical
# test_settings: 3 μM test compound
Quick rule for you: % Inhibition (FS) at 80% or higher means 1.0, lower means 0.0.

- molecule: "CN(C(=O)CCC(C1CCCCC1)N1Cc2cc(Oc3ccccc3)ccc2N=C1N)C1(C(=O)O)CCCCC1 (stereo not shown) [Compound 741]"
  category: 0.0
- molecule: "NC1=Nc2ccc(-c3ccc4ccccc4c3)cc2CN1CCNC(=O)C1CCC1 [Compound 663]"
  category: 0.0
- molecule: "COc1cccc(F)c1-c1ccc2c(c1)CN(CCNC(=O)C1CCOCC1)C(N)=N2 [Compound 699]"
  category: 1.0
- molecule: "CC(C)CCC(=O)NCCN1Cc2cc(-c3cnc4ccccc4c3)ccc2N=C1N [Compound 675]"
  category: 0.0
- molecule: "NC1=Nc2ccc(Oc3ccccc3)cc2CN1Cc1cccc(C(=O)N(C2CCCCC2)C2CCCCC2)c1 [Compound 98]"
  category: 1.0
- molecule: "CC(C)(C)C(=O)NCCN1Cc2cc(-c3ccc4ccccc4c3)ccc2N=C1N [Compound 667]"
  category: 0.0
- molecule: "CN(C(=O)CCC(C1CCCCC1)N1Cc2cc(Oc3ccccc3)ccc2N=C1N)c1ccc(C(=O)O)cc1 (stereo not shown) [Compound 766]"
  category: 0.0
- molecule: "CN(C(=O)CCC(C)(C)N1Cc2cc(Oc3ccccc3)ccc2N=C1N)C1CCCCC1 [Compound 738]"
  category: 0.0
- molecule: "CC(C)(C)C(=O)NCCN1Cc2cc(-c3cnc4ccccc4c3)ccc2N=C1N [Compound 674]"
  category: 0.0
- molecule: "CCCC(=O)NCCN1Cc2cc(-c3cnc4ccccc4c3)ccc2N=C1N [Compound 673]"
  category: 0.0
- molecule: "NC1=Nc2ccc(Oc3ccccc3)cc2CN1CCNC(=O)C1(c2ccc(Cl)cc2)CCCC1 [Compound 196]"
  category: 1.0
- molecule: "COc1ccccc1-c1ccc2c(c1)CN([C@@H](CCC(=O)N(C)Cc1csc(-c3ccccc3)n1)C1CCCCC1)C(N)=N2 [Compound 716]"
  category: 0.0
- molecule: "COc1cccc(F)c1-c1ccc2c(c1)CN(CCNC(=O)C1CCC(C(F)(F)F)CC1)C(N)=N2 (stereo not shown) [Compound 700]"
  category: 1.0
- molecule: "CCCC(CCC)C(=O)NCC(C1CCCCC1)N1Cc2cc(Oc3ccccc3)ccc2N=C1N (stereo not shown) [Compound 302]"
  category: 1.0

====

# test_target: β-secretase (BACE) (Homo sapiens)
# Construct: purchased Panvera
# experimental_details: BACE % Inhibition Assay (Example 161), (Aedens)-[…]-(Dabcyl K-amide) substrate
# Type: biochemical
# test_settings: 1 μM test compound; % error ±10%
# % Inhibition listing for each entry below
measured_attribute: % Inhibition (%)

- molecule: "NC1=Nc2ccc(Oc3ccccc3)cc2CN1C(CCNC(=O)C1CCCCC1)C1CCCCC1 (stereo not shown)"
  number: 93
- molecule: "CCCC(CNC(=O)OC(C)(C)C)N1Cc2cc(Oc3ccccc3)ccc2N=C1N (stereo not shown)"
  number: 70
- molecule: "CC(C)CC(=O)NCC(C1CCCCC1)N1Cc2cc(Oc3ccccc3)ccc2N=C1N (stereo not shown)"
  number: 112
- molecule: "NC1=Nc2ccc(Oc3ccccc3)cc2CN1C(CNC(=O)C1CCCCC1)c1ccccc1 (stereo not shown)"
  number: 93

====

# % Inhibition (FS) listing for each entry below
# test_target: β-secretase (BACE) (Homo sapiens, UniProt P56817)
# Construct: purchased Panvera
# experimental_details: BACE FS1% Inhibition Assay (Example 160)
# Type: biochemical
# test_settings: 0.3 μM test compound
measured_attribute: % Inhibition (FS)

- compound: "COC(=O)Cc1cccc(CN(C)C(=O)CCC(C2CCCCC2)N2Cc3cc(Oc4ccccc4)ccc3N=C2N)c1 (stereo not shown) [Compound 775]"
  result: "<30%"
- compound: "COc1ccccc1-c1ccc2c(c1)CN([C@@H](CCC(=O)N(C)Cc1csc(-c3ccccc3)n1)C1CCCCC1)C(N)=N2 [Compound 716]"
  result: "<30%"
- compound: "CC(CC(=O)NCCN1Cc2cc(-c3ccccc3)ccc2N=C1N)C(F)(F)F (stereo not shown) [Compound 685]"
  result: "50%"
- compound: "COC(=O)[C@H](COCc1ccccc1)N(C)C(=O)CC[C@@H](C1CCOCC1)N1Cc2cc(Oc3ccccc3)ccc2N=C1N [Compound 786]"
  result: "97%"
- compound: "NC1=Nc2ccc(-c3ccccc3F)cc2CN1CCNC(=O)CCC(F)(F)F [Compound 680]"
  result: "42%"
- compound: "NC1=Nc2ccc(-c3cnc4ccccc4c3)cc2CN1CCNC(=O)C1CCC1 [Compound 670]"
  result: "<30%"
- compound: "CN(C(=O)CCC(C1CCCCC1)N1Cc2cc(Oc3ccccc3)ccc2N=C1N)C1CCC(C#N)CC1 (stereo not shown) [Compound 769]"
  result: "<30%"

====

# test_target: β-secretase (BACE) (Homo sapiens, UniProt P56817)
# Construct: purchased Panvera
# experimental_details: BACE FS1% Inhibition Assay (Example 160)
# Assay type: biochemical
# test_settings: 0.3 μM test compound

- molecule: "COc1ccccc1-c1ccc2c(c1)CN(CCNC(=O)C1CCC(C(F)(F)F)CC1)C(N)=N2 (stereo not shown)"
  % Inhibition (FS): "<30%"
- molecule: "CN(CCC#N)C(=O)CC[C@@H](C1CCCCC1)N1Cc2cc(-c3ccccc3F)ccc2N=C1N"
  % Inhibition (FS): "33%"
- molecule: "CC(C)[C@H](CNC(=O)C1CCCCC1)N1Cc2cc(Oc3ccccc3)ccc2N=C1N"
  % Inhibition (FS): "114%"
- molecule: "NC1=Nc2ccc(-c3ccc4ccccc4c3)cc2CN1CCNC(=O)CCC(F)(F)F"
  % Inhibition (FS): "<30%"
- molecule: "CC(=O)N1CCC(C(=O)NCCN2Cc3cc(C4=CCCCC4)ccc3N=C2N)CC1"
  % Inhibition (FS): "<30%"
- molecule: "NC1=Nc2ccc(-c3ccccc3)cc2CN1CCNC(=O)CCC(F)(F)F"
  % Inhibition (FS): "33%"
- molecule: "CN(C(=O)CCC(C1CCCCC1)N1Cc2cc(Oc3ccccc3)ccc2N=C1N)c1ccc(C(=O)O)cc1 (stereo not shown)"
  % Inhibition (FS): "<30%"
- molecule: "CN(Cc1cc(-c2ccccc2)on1)C(=O)CC[C@@H](C1CCCCC1)N1Cc2cc(-c3ccccc3F)ccc2N=C1N"
  % Inhibition (FS): "38%"
- molecule: "NC1=Nc2ccc(-c3ccccc3Cl)cc2CN1CCNC(=O)C1CCOCC1"
  % Inhibition (FS): "33%"
- molecule: "CC(C)CCC(=O)NCCN1Cc2cc(-c3ccc4ccccc4c3)ccc2N=C1N"
  % Inhibition (FS): "<30%"
- molecule: "CCCCC(CC)C(=O)NCCN1Cc2cc(-c3ccc4ccccc4c3)ccc2N=C1N (stereo not shown)"
  % Inhibition (FS): "<30%"
- molecule: "CN(C(=O)CC[C@@H](C1CCOCC1)N1Cc2cc(Oc3ccccc3)ccc2N=C1N)[C@H]1CC[C@H](C(=O)O)CC1"
  % Inhibition (FS): "85%"
- molecule: "NC1=Nc2ccc(-c3ccccc3F)cc2CN1CCNC(=O)C1CCC(C(F)(F)F)CC1 (stereo not shown)"
  % Inhibition (FS): "<30%"
- molecule: "NC1=Nc2ccc(-c3cnc4ccccc4c3)cc2CN1CCNC(=O)C12CC3CC(CC(C3)C1)C2"
  % Inhibition (FS): "<30%"
- molecule: "CC(=O)N1CCC(C(=O)NCCN2Cc3cc(-c4ccccc4Cl)ccc3N=C2N)CC1"
  % Inhibition (FS): "<30%"
- molecule: "COc1ccccc1-c1ccc2c(c1)CN([C@@H](CCC(=O)N(C)Cc1cc(-c3ccccc3)on1)C1CCCCC1)C(N)=N2"
  % Inhibition (FS): "31%"
- molecule: "CC(C)(C)C(=O)NCCN1Cc2cc(-c3cnc4ccccc4c3)ccc2N=C1N"
  % Inhibition (FS): "36%"
- molecule: "NC1=Nc2ccc(-c3ccc4ccccc4c3)cc2CN1CCNC(=O)C1CCCC1"
  % Inhibition (FS): "<30%"
- molecule: "CN(CCc1ccccc1)C(=O)CC[C@@H](C1CCCCC1)N1Cc2cc(-c3ccccc3F)ccc2N=C1N"
  % Inhibition (FS): "46%"
- molecule: "COC1CCCC(C(=O)NCCN2Cc3cc(-c4ccccc4)ccc3N=C2N)C1 (stereo not shown)"
  % Inhibition (FS): "<30%"
- molecule: "CN(C(=O)CCC(C1CCCCC1)N1Cc2cc(Oc3ccccc3)ccc2N=C1N)C1(C(=O)O)CCCCC1 (stereo not shown)"
  % Inhibition (FS): "−48%"
- molecule: "COc1ccc(C(CCC(=O)N(C)C2CCCCC2)N2Cc3cc(Oc4ccccc4)ccc3N=C2N)cc1 (stereo not shown)"
  % Inhibition (FS): "<30%"
- molecule: "NC1=Nc2ccc(-c3ccc4ccccc4c3)cc2CN1CCNC(=O)C1CCC1"
  % Inhibition (FS): "<30%"
- molecule: "NC1=Nc2ccc(-c3ccccc3Cl)cc2CN1CCNC(=O)C1CCC(C(F)(F)F)CC1 (stereo not shown)"
  % Inhibition (FS): "<30%"
- molecule: "CCCC(=O)NCCN1Cc2cc(-c3cnc4ccccc4c3)ccc2N=C1N"
  % Inhibition (FS): "34%"
- molecule: "COC(=O)C1CCCC(N(C)C(=O)CCC(C2CCCCC2)N2Cc3cc(Oc4ccccc4)ccc3N=C2N)C1 (mixture of isomers)"
  % Inhibition (FS): "38%"
- molecule: "CCCCC(CC)C(=O)NCCN1Cc2cc(-c3ccccc3C)ccc2N=C1N (stereo not shown)"
  % Inhibition (FS): "66%"
- molecule: "CNC(=O)C1CCC(N(C)C(=O)CCC(C2CCCCC2)N2Cc3cc(Oc4ccccc4)ccc3N=C2N)CC1 (stereo not shown)"
  % Inhibition (FS): "<30%"
- molecule: "NC1=Nc2ccc(C3=CCCCC3)cc2CN1CCNC(=O)C1CCC(C(F)(F)F)CC1 (stereo not shown)"
  % Inhibition (FS): "<30%"
- molecule: "CN(CC(=O)O)C(=O)CCC(C1CCCCC1)N1Cc2cc(Oc3ccccc3)ccc2N=C1N (stereo not shown)"
  % Inhibition (FS): "<30%"
- molecule: "COc1ccccc1-c1ccc2c(c1)CN([C@@H](CCC(=O)N(C)Cc1cc(C)no1)C1CCCCC1)C(N)=N2"
  % Inhibition (FS): "<30%"
